biological target: human A3AR (Homo sapiens, UniProt P0DMS8)
Structures can show the parent of a compound that is named as a salt.

| molecule | targetUnderTest | unitAbbrev | Ki |
| --- | --- | --- | --- |
| Cc1nc(-c2ccc(OCC(C)C)c(C#N)c2)sc1C(=O)O [Febuxostat] | human A3AR (Homo sapiens, UniProt P0DMS8) | µM | 67.3 |
| Fc1ccc([C@@H]2CCNC[C@H]2COc2ccc3c(c2)OCO3)cc1 [Paroxetine, Paroxetine Hydrochloride] | human A3AR (Homo sapiens, UniProt P0DMS8) | µM | 14.5 |

* * *

target: human A2AAR (Homo sapiens); test: cAMP assay in AR-expressing HEK293 cells (ALPHAScreen), A2AAR; details: HEK293 cells expressing human A2AAR; absence of antagonist; read-out: EC50, stimulation of cAMP, A2AAR
Sequence (P29274 whole entry): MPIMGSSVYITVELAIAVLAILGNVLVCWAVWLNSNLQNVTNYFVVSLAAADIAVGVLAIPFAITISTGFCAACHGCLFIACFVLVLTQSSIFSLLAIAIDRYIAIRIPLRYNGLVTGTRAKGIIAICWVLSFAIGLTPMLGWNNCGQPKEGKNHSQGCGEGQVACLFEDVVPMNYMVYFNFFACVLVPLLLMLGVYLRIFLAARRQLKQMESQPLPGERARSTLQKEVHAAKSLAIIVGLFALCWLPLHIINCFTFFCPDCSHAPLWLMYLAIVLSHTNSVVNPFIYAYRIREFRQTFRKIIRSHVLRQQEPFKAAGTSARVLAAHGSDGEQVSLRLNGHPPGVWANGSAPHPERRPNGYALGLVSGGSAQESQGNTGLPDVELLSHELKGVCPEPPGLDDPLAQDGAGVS
Structures can show the parent of a compound that is named as a salt.

| compound | EC50 (µM) |
| --- | --- |
| Fc1ccc([C@@H]2CCNC[C@H]2COc2ccc3c(c2)OCO3)cc1 [Paroxetine, Paroxetine Hydrochloride] | 14 |

* * *

Target: UniProt:P0DMS8
Sequence (P0DMS8 1-318): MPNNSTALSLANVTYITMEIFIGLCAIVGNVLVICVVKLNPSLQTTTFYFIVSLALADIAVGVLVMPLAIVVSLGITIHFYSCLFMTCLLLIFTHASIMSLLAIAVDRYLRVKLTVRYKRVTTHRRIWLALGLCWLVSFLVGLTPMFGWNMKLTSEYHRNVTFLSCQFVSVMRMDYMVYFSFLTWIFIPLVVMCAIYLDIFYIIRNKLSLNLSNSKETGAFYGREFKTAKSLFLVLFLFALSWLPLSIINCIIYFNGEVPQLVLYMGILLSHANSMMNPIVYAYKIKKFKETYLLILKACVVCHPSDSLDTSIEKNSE
Counter-ions that a name gives are not always drawn.
observedProperty: Kd (µM)

| compound | unitAbbrev | measured |
| --- | --- | --- |
| Fc1ccc([C@@H]2CCNC[C@H]2COc2ccc3c(c2)OCO3)cc1 [Paroxetine, Paroxetine Hydrochloride] | µM | 14.5 |

* * *

The following compounds are listed with their measured normalized activity with respect to the positive control values.
test system: human A1AR; construct: host or cells: HEK293 A1AR Nomad cell line; assay: A1AR cAMP assay, HEK293 A1AR Nomad cell line (Innoprot), agonist mode; assay type: cell-based; details: compounds at 10 µM, normalized to 10 µM NECA (100%) and vehicle DMSO (0%)
Counter-ions that a name gives are not always drawn.
observedProperty: normalized activity with respect to the positive control (%)

| compound | measured |
| --- | --- |
| CCN(CC)CCOc1ccc2c(c1)C(=O)c1cc(OCCN(CC)CC)ccc1-2 [Tilorone Hydrochloride] | 55.9 |
| Cc1ccc(S(=O)(=O)/C=C/C#N)cc1 | 95.74 |
| Fc1ccc([C@@H]2CCNC[C@H]2COc2ccc3c(c2)OCO3)cc1 [Paroxetine, Paroxetine Hydrochloride] | 68.0 |
| N#Cc1ccc(Oc2ccc3c(c2)COB3O)cc1 | 98.52 |
| Cc1nc(-c2ccc(OCC(C)C)c(C#N)c2)sc1C(=O)O | 94.53 |
